Experiment: VP16 counterscreen qHTS for inhibitors of ROR gamma transcriptional activity;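 further: Gal4-VP16 expression switched on by copper sulfate through the metallothionein promoter; nearly all actives have a fitted effect of over 50% in size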
Settings: Drosophila S2 Gal4-VP16 UAS-luciferase, luminescence, 20 h; series mostly up to 53.6 µM
In all, about 310,000 compounds went through this assay and about 11,000 (3.5%) were called active. Roughly 8% stayed inconclusive and do not appear here. The call rests on the fitted dose curve; in most records, active means well fitted inhibition curve with a large enough effect; inconclusive means small, poorly fitted or top-dose-only effect, or effect the other way; inactive means flat fitted curve, though single readings scatter. The sample as a whole holds a higher share of actives than the screen did.
Labels: active, inactive

COc1ccc(-n2cc(-c3ccccc3)c3c(=S)nc[nH]c32)cc1 :: active
O=c1[nH]cnc2c1c(-c1ccccc1)cn2-c1ccc(F)cc1 :: inactive
CC(=O)c1nn(-c2cccc(C(F)(F)F)c2)c(=O)[nH]c1=O :: inactive
COc1ccc(C(=O)Nc2ccc(C3(C#N)CCCC3)cc2)cc1OC :: inactive
O=C(NCc1ccccc1Cl)C1CCN(S(=O)(=O)c2cccc3nonc23)CC1 :: inactive
COc1ccc(N2C(=O)C(Cc3ccccc3)NC2=S)cc1 (stereo unspecified) :: inactive
